B1: Tyrosine-protein kinase BTK, residues 215 to 273; numbered along this chain, Q06187 (parent)
chain: ELKKVVALYDYMPMNANDLQLRKGDEYFILEESNLPWWRARDKNGQEGYIPSNYVTEAE

variants of: B1; assay: abundance fitness (aPCA) (normalised: wild type 0, dead -1); higher = more abundant; growth selection in yeast, the domain comes from the species named; conditions: Homo sapiens
// label = Fulfilled if abundance fitness is not less than -0.03, otherwise Not fulfilled

Some entries whose results are on file:
[
  {
    "mutation": "L19R",
    "class.assignment": "Not fulfilled"
  },
  {
    "mutation": "N17A",
    "class.assignment": "Not fulfilled"
  },
  {
    "mutation": "N53H",
    "class.assignment": "Not fulfilled"
  },
  {
    "mutation": "N34T",
    "class.assignment": "Fulfilled"
  },
  {
    "mutation": "D18H",
    "class.assignment": "Fulfilled"
  }
]

Data request: Kindly determine if abundance fitness recorded for L35N is above or exactly -0.03.
Data returned: Not fulfilled

Data request: Moving on to T56G
Data returned: Fulfilled

Data request: Moving on to R22A
Data returned: Not fulfilled

Data request: Moving on to E31G
Data returned: Not fulfilled

Data request: Moving on to N17K
Data returned: Not fulfilled

Data request: Moving on to E47F
Data returned: Not fulfilled
